System: Pseudomonas aeruginosa
Experiment: Antimicrobial activity against Pseudomonas aeruginosa relative to peptide Bac2A RLARIVVIRVAR sequence
MEASUREMENT LABEL: Ratio IC50

The cases that follow already have their Ratio IC50 on record.
H-WRWWKWWRR-OH | 0.23
H-RWWRKWWIR-OH | 0.24

Shifting focus to the substance that follows.
Suppose we examine the substance `H-KKRWLWWWR-OH` ; what Ratio IC50 value has been reported?
0.3

Origin of values: ChEMBL document CHEMBL3352520
